Data origin: patent US5556870A

assay: Metabolism of leflunomide in the mononuclear cell test sample (HPLC, time-dependent); format: in vitro ADME, human; details: human, mononuclear cells; mononuclear cell test sample, 37° C., HPLC

# compound, half-life
measured = [
    ("Cc1oncc1C(=O)Nc1ccc(C(F)(F)F)cc1 [Leflunomide]", "~10 h"),
]
